# procedureText: log P by HPLC (OECD Guideline 117), method [b] neutral range
# Assay type: physicochemical
# appliedConditions: HPLC, method [b] neutral range
observedProperty: logP[b]

[
  {
    "compound": "Cc1cc(F)c(-n2nc(C(C)C)n(C3CC3)c2=O)cc1SCC(F)(F)F",
    "observedProperty": "logP[b]",
    "assayValue": 3.52
  },
  {
    "compound": "CCC(C)c1nn(-c2cc(SCC(F)(F)F)c(C)cc2F)c(=O)n1C1CC1 (stereo not drawn)",
    "observedProperty": "logP[b]",
    "assayValue": 3.94
  },
  {
    "compound": "Cc1cc(F)c(-n2nc(C3CCC3)n(C3CC3)c2=O)cc1[S+]([O-])CC(F)(F)F (racemic)",
    "observedProperty": "logP[b]",
    "assayValue": 2.66
  },
  {
    "compound": "Cc1cc(F)c(-n2nc(OCC(Cl)(Cl)Cl)n(C)c2=O)cc1SCC(F)(F)F",
    "observedProperty": "logP[b]",
    "assayValue": 4.18
  },
  {
    "compound": "C=CCSc1nn(-c2cc(SCC(F)(F)F)c(C)cc2F)c(=O)n1C",
    "observedProperty": "logP[b]",
    "assayValue": 3.56
  },
  {
    "compound": "COC1=CC(=O)N(c2cc([S+]([O-])CC(F)(F)F)c(C)cc2C)C1 (racemic)",
    "observedProperty": "logP[b]",
    "assayValue": 1.83
  },
  {
    "compound": "COc1nn(-c2cc(SCC(F)(F)F)c(Cl)cc2F)c(=O)n1C1CC1",
    "observedProperty": "logP[b]",
    "assayValue": 3.27
  },
  {
    "compound": "CCOc1nn(-c2cc(SCC(F)(F)F)c(C)cc2F)c(=O)n1C1CC1",
    "observedProperty": "logP[b]",
    "assayValue": 3.44
  },
  {
    "compound": "CCCSc1nn(-c2cc([S+]([O-])CC(F)(F)F)c(C)cc2F)c(=O)n1C1CC1 (stereo not drawn)",
    "observedProperty": "logP[b]",
    "assayValue": 3.17
  },
  {
    "compound": "Cc1cc(F)c(-n2nc(C3CCCC3)n(C3CC3)c2=O)cc1[S+]([O-])CC(F)(F)F (stereo not drawn)",
    "observedProperty": "logP[b]",
    "assayValue": 3.03
  },
  {
    "compound": "CCn1c(Cl)nn(-c2cc([S+]([O-])CC(F)(F)F)c(C)cc2F)c1=O (stereo not drawn)",
    "observedProperty": "logP[b]",
    "assayValue": 2.30
  },
  {
    "compound": "Cc1cc(F)c(-n2nc(C3CC3)n(C(C)C)c2=O)cc1[S+]([O-])CC(F)(F)F (racemic)",
    "observedProperty": "logP[b]",
    "assayValue": 2.55
  },
  {
    "compound": "Cc1cc(F)c(-n2nc(SCC3CC3)n(C)c2=O)cc1[S+]([O-])CC(F)(F)F (racemic)",
    "observedProperty": "logP[b]",
    "assayValue": 2.75
  },
  {
    "compound": "Cc1cc(F)c(-n2nc(SC(F)(F)F)n(C)c2=O)cc1[S+]([O-])CC(F)(F)F (racemic)",
    "observedProperty": "logP[b]",
    "assayValue": 2.60
  },
  {
    "compound": "COc1nn(-c2cc([S+]([O-])CC(F)(F)F)c(C)cc2F)c(=O)n1CC1CC1 (stereo not drawn)",
    "observedProperty": "logP[b]",
    "assayValue": 2.52
  },
  {
    "compound": "Cc1ccc(-n2nc(OC(C)C)n(C3CC3)c2=O)cc1SCC(F)(F)F",
    "observedProperty": "logP[b]",
    "assayValue": 4.54
  },
  {
    "compound": "COCCOc1nn(-c2cc(SCC(F)(F)F)c(C)cc2F)c(=O)n1C",
    "observedProperty": "logP[b]",
    "assayValue": 2.76
  },
  {
    "compound": "Cc1cc(C)c([S+]([O-])CC(F)(F)F)cc1-n1nc(OCC(F)(F)F)n(C2CC2)c1=O (racemic)",
    "observedProperty": "logP[b]",
    "assayValue": 2.94
  },
  {
    "compound": "COC1=CC(=O)N(c2ccc(C(F)(F)F)c(SCC(F)(F)F)c2)C1",
    "observedProperty": "logP[b]",
    "assayValue": 3.25
  },
  {
    "compound": "CCOc1nn(-c2cc(SCC(F)(F)F)c(C)cc2F)c(=O)n1CC",
    "observedProperty": "logP[b]",
    "assayValue": 3.53
  },
  {
    "compound": "CC(C)(C)COc1nn(-c2cc([S+]([O-])CC(F)(F)F)c(Cl)cc2Cl)c(=O)n1C1CC1 (stereo not drawn)",
    "observedProperty": "logP[b]",
    "assayValue": 4.18
  },
  {
    "compound": "Cc1cc(F)c(-n2nc(C)n(C3CC3)c2=O)cc1SCC(F)(F)F",
    "observedProperty": "logP[b]",
    "assayValue": 2.73
  },
  {
    "compound": "Cc1cc(F)c(-n2nc(Cl)n(C)c2=O)cc1[S+]([O-])CC(F)(F)F (stereo not drawn)",
    "observedProperty": "logP[b]",
    "assayValue": 1.98
  },
  {
    "compound": "COc1cc(F)c(-n2nc(OCC(C)(C)C)n(C3CC3)c2=O)cc1[S+]([O-])CC(F)(F)F (stereo not drawn)",
    "observedProperty": "logP[b]",
    "assayValue": 3.44
  },
  {
    "compound": "CCN(CC)c1nn(-c2cc(SCC(F)(F)F)c(C)cc2F)c(=O)n1N",
    "observedProperty": "logP[b]",
    "assayValue": 3.17
  },
  {
    "compound": "Cc1cc(F)c(-n2nc(OCC(C)C)n(C)c2=O)cc1[S+]([O-])CC(F)(F)F (stereo not drawn)",
    "observedProperty": "logP[b]",
    "assayValue": 2.83
  },
  {
    "compound": "C=CCn1c(SCC)nn(-c2cc(SCC(F)(F)F)c(C)cc2F)c1=O",
    "observedProperty": "logP[b]",
    "assayValue": 3.96
  },
  {
    "compound": "CCCOC1=CC(=O)N(c2cc([S+]([O-])CC(F)(F)F)c(C)cc2F)C1 (stereo not drawn)",
    "observedProperty": "logP[b]",
    "assayValue": 2.52
  },
  {
    "compound": "COn1c(C(C)C)nn(-c2cc([S+]([O-])CC(F)(F)F)c(C)cc2F)c1=O (stereo not drawn)",
    "observedProperty": "logP[b]",
    "assayValue": 2.42
  },
  {
    "compound": "COC1=CC(=O)N(c2cc([S+]([O-])CC(F)(F)F)c(Cl)cc2F)C1 (stereo not drawn)",
    "observedProperty": "logP[b]",
    "assayValue": 2.11
  },
  {
    "compound": "C=CCn1c(OCC(F)(F)F)nn(-c2cc(SCC(F)(F)F)c(C)cc2F)c1=O",
    "observedProperty": "logP[b]",
    "assayValue": 3.89
  },
  {
    "compound": "CCCOc1nn(-c2cc(SCC(F)(F)F)c(C)cc2F)c(=O)n1C",
    "observedProperty": "logP[b]",
    "assayValue": 3.57
  },
  {
    "compound": "Cc1cc(F)c(-n2nc(OC3CCCCC3)n(C)c2=O)cc1SCC(F)(F)F",
    "observedProperty": "logP[b]",
    "assayValue": 4.44
  }
]
